Values were extracted from patent US9056844B2.

# System: human mGlu6 receptor (Homo sapiens)
# Sequence (O15303 25-877): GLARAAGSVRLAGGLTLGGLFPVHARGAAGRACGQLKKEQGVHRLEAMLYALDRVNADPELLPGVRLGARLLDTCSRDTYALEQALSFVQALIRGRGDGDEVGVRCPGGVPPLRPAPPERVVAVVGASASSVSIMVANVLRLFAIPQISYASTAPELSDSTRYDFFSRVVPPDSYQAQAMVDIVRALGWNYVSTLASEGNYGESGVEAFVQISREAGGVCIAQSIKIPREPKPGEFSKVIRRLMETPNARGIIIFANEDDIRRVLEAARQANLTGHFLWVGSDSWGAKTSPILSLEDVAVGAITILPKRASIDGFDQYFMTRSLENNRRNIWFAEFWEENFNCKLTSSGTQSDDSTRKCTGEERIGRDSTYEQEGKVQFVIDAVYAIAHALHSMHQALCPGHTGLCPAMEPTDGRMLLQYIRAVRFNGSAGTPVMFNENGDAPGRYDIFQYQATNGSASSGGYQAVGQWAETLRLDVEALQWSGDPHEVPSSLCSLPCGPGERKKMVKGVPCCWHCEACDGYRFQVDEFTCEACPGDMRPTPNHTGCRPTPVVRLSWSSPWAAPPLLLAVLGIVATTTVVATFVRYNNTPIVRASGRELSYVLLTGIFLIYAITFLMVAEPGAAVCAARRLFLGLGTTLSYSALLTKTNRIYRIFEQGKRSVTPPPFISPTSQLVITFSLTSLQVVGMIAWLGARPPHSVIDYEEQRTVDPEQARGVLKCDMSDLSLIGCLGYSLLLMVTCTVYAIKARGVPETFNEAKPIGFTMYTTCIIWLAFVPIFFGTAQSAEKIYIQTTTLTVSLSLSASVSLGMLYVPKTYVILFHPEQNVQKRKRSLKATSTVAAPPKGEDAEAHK
# Test protocol: mGlu6 cAMP antagonist assay (reference agonist L-AP4)
# Assay context: cAMP format
Outcome measure: IC50 (nM)

Worked set:
CC(=O)N[C@H]1[C@H]2[C@H](C(=O)O)[C@H]2[C@](N)(C(=O)O)[C@@H]1OCc1ccc(Cl)c(Cl)c1 [Example 4]    2640
Cl.N[C@]1(C(=O)O)[C@@H]2[C@@H](C(=O)O)[C@@H]2[C@H](NC(=O)CO)[C@H]1OCc1ccc(Cl)c(Cl)c1 [Example 9, hydrochloride]    2820
N[C@]1(C(=O)O)[C@@H]2[C@@H](C(=O)O)[C@@H]2[C@H](Sc2nccs2)[C@H]1OCc1ccc(Cl)c(Cl)c1 [Example 3]    2480

(A) COC(=O)N[C@H]1[C@H]2[C@H](C(=O)O)[C@H]2[C@](N)(C(=O)O)[C@@H]1OCc1ccc(Cl)c(Cl)c1 [Example 5]
(B) Cl.N[C@]1(C(=O)O)[C@@H]2[C@@H](C(=O)O)[C@@H]2[C@H](Sc2ncc[nH]2)[C@H]1OCc1ccc(Cl)c(Cl)c1 [Example 8, hydrochloride]
(C) Cl.Cn1cnc(S[C@H]2[C@H]3[C@H](C(=O)O)[C@H]3[C@](N)(C(=O)O)[C@@H]2OCc2ccc(Cl)c(Cl)c2)n1 [Example 7, hydrochloride]
Could you please sort these 3 entries by IC50 from high to low? Give your ranking as a list of the labels in the requested order.
C, B, A

====

# System: UniProt:O15303
# Test protocol: mGlu6 cAMP antagonist assay (reference agonist L-AP4)
# Assay context: cAMP format
Outcome measure: IC50 (µM)

(A) N[C@]1(C(=O)O)[C@@H]2[C@@H](C(=O)O)[C@@H]2[C@H](Sc2nc[nH]n2)[C@H]1OCc1ccc(Cl)c(Cl)c1
(B) N[C@]1(C(=O)O)[C@@H]2[C@@H](C(=O)O)[C@@H]2[C@H](O)[C@H]1OCc1ccc(Cl)c(Cl)c1
Returns: the argument ( A or B ) having the larger IC50. # answer = label of selected item
B

====

# System: human mGlu2 receptors (Homo sapiens, UniProt Q14416)
# Sequence (Q14416 19-872): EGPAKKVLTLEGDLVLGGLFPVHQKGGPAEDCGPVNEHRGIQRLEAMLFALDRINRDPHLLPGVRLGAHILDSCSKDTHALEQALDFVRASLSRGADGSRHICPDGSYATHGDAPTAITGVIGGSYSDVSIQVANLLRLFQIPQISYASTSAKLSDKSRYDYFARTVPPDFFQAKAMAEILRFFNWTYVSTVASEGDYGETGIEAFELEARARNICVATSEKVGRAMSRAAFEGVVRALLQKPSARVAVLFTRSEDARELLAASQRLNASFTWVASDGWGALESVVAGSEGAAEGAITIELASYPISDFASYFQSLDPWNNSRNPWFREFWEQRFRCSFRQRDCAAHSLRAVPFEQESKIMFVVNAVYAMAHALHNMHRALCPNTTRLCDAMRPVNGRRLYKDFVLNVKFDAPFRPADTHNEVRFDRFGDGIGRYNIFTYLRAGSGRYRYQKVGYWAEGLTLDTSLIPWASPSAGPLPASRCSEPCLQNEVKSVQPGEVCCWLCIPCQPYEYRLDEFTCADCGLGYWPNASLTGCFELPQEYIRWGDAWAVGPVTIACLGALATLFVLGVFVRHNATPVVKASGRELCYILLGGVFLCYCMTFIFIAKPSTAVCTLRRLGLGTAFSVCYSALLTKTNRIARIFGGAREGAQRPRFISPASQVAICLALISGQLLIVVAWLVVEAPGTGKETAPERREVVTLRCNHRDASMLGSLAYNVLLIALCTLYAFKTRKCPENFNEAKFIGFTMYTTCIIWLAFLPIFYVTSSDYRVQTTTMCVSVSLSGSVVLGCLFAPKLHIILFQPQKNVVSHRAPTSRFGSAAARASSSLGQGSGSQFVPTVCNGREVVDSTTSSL
# Test protocol: mGlu2 receptor cAMP antagonist assay
# Assay context: reversal of DCG IV (EC90) inhibition of forskolin-stimulated cAMP; AV12 cells
pIC50: −log10 of the molar value.
Outcome measure: pIC50

Cl.Cn1ncnc1S[C@H]1[C@H]2[C@H](C(=O)O)[C@H]2[C@](N)(C(=O)O)[C@@H]1OCc1ccc(Cl)c(Cl)c1 [Example 6, hydrochloride]    7.73

(P) COC(=O)N[C@H]1[C@H]2[C@H](C(=O)O)[C@H]2[C@](N)(C(=O)O)[C@@H]1OCc1ccc(Cl)c(Cl)c1 [Example 5]
(Q) Cl.Cn1cnc(S[C@H]2[C@H]3[C@H](C(=O)O)[C@H]3[C@](N)(C(=O)O)[C@@H]2OCc2ccc(Cl)c(Cl)c2)n1 [Example 7, hydrochloride]
Of P versus Q , which is the one with smaller reported pIC50? # answer = label of selected item
Q
(Q: 7.28, P: 7.77)

====

# System: male NIH-Swiss mice
# Test protocol: Forced-swim test in mice (mFST)
# Type: in vivo, mouse
# Assay context: p.o.; immobility time
Reported values of Maximal Decrease (1 − compound/control) * 100% for individual entries
Just the number please, in %, no unit attached.

Worked set:
CC(C)C(=O)OCOC(=O)[C@H]1[C@@H]2[C@H](O)[C@@H](OCc3ccc(Cl)c(Cl)c3)[C@@](N)(C(=O)OCOC(=O)C(C)C)[C@H]12.Cl    7
Cl.N[C@]1(C(=O)OCOC(=O)C2CC2)[C@@H]2[C@@H](C(=O)OCOC(=O)C3CC3)[C@@H]2[C@H](O)[C@H]1OCc1ccc(Cl)c(Cl)c1    62.8
CC(C)OC(=O)OCOC(=O)[C@H]1[C@@H]2[C@H](O)[C@@H](OCc3ccc(Cl)c(Cl)c3)[C@@](N)(C(=O)OCOC(=O)OC(C)C)[C@H]12.Cl    50.5

Short answer for `CCOC(=O)OCOC(=O)[C@H]1[C@@H]2[C@H](O)[C@@H](OCc3ccc(Cl)c(Cl)c3)[C@@](N)(C(=O)OCOC(=O)OCC)[C@H]12.Cl` : Maximal Decrease (1 − compound/control) * 100% was 32.9
